measurement description: log P by HPLC on reversed-phase column (C 18), EEC Directive 79/831 Annex V.A8
Format: physicochemical
settings: HPLC on reversed-phase column (C 18); 40° C.; 0.1% aqueous formic acid and acetonitrile; linear gradient 10% to 90% acetonitrile
Rule: Criterion met for logP not less than 4, Criterion not met for anything less.

* Cn1nc(C(F)F)c(C(=S)N2CCCCC2c2cccc(Cl)c2)c1Cl (centres unmarked) | Criterion met
* Cc1nn(C)c(F)c1C(=O)N1CCCCC1c1ccccc1Cl (centres unmarked) | Criterion not met
* Cn1nc(C(F)F)c(C(=O)N2CCCCC2c2ccc3ccccc3c2)c1Cl (centres unmarked) | Criterion not met
* Cn1nc(C(F)F)c(C(=O)N2CCCCC2c2ccc(Br)cc2)c1F (centres unmarked) | Criterion not met
* CCc1noc(C)c1C(=O)N1CCCCC1c1ccccc1Cl (centres unmarked) | Criterion not met
* Cc1ccc(OCC2CCCCN2C(=O)c2c(C(F)F)nn(C)c2F)cc1 (centres unmarked) | Criterion not met
* Cc1cc(C)cc(C2CCCCN2C(=O)c2snnc2C(C)C)c1 (centres unmarked) | Criterion met
* Cn1nc(C(F)F)c(C(=S)N2CCCCC2c2ccc(Cl)cc2)c1F (centres unmarked) | Criterion met
* CCc1noc(C)c1C(=O)N1CCCCC1c1ccc(Br)s1 (centres unmarked) | Criterion not met
* CCc1nn(C)c(F)c1C(=O)N1CCCCC1c1cc(C)cc(C)c1 (centres unmarked) | Criterion not met
* Cn1nc(C(F)F)c(C(=O)N2CCCCC2CCOc2ccc(F)cc2F)c1F (centres unmarked) | Criterion not met
* Cc1nn(C)c(F)c1C(=O)N1CCCCC1c1cccc(Br)c1 (centres unmarked) | Criterion not met
* Cn1nc(C(F)F)c(C(=O)N2CCCCC2c2ccc(Cl)cc2)c1F (centres unmarked) | Criterion not met
* Cc1ccccc1C1CCCCN1C(=O)c1c(C(F)F)nn(C)c1Cl (centres unmarked) | Criterion not met
* Cn1nc(C(F)F)c(C(=O)N2CCCCC2c2ccc3c(c2)OCCO3)c1F (centres unmarked) | Criterion not met
* Cn1nc(C(F)F)c(C(=O)N2CCCCC2c2cccc(Oc3ccccc3)c2)c1Cl (centres unmarked) | Criterion met
* CCc1nn(C)c(F)c1C(=O)N1CCCCC1c1cc(OC)cc(OC)c1 (centres unmarked) | Criterion not met
* CC(c1ccccc1)C1CCCCN1C(=S)c1c(C(F)F)nn(C)c1F (centres unmarked) | Criterion met
* Cc1nn(C)c(F)c1C(=O)N1CCCCC1c1cc(Cl)ccc1Cl (centres unmarked) | Criterion not met
* CCc1nn(C)c(F)c1C(=O)N1CCCCC1CCc1ccccc1 (centres unmarked) | Criterion not met
* Cc1nc(C(F)F)c(C(=O)N2CCCCC2Cc2ccccc2C)s1 (centres unmarked) | Criterion not met
* CCn1nc(C)c(C(=O)N2CCCCC2c2ccc(Br)s2)c1F (centres unmarked) | Criterion not met
* Cc1ccc(C2CCCCN2C(=O)c2c(C(F)F)nn(C)c2Cl)cc1C (centres unmarked) | Criterion not met
* Cn1nc(C(F)F)c(C(=O)N2CCCCC2Cc2ccc(F)cc2)c1F (centres unmarked) | Criterion not met
* Cn1nc(C(F)F)c(C(=O)N2CCCCC2c2ccc(Cl)cc2)c1Cl (centres unmarked) | Criterion not met
* CCc1noc(C)c1C(=O)N1CCCCC1Cc1ccccc1 (centres unmarked) | Criterion not met
* Cn1nc(C(F)F)c(C(=O)N2CCCCC2c2cccc(Cl)c2)c1F (centres unmarked) | Criterion not met
* Cc1cc(C)cc(C2CCCCN2C(=O)c2c(C)oc(C)c2Br)c1 (centres unmarked) | Criterion met
* Cc1cc(C(=O)N2CCCCC2c2cccc(Oc3ccccc3)c2)c(C)o1 (centres unmarked) | Criterion met
* Cc1cc(C)cc(C2CCCCN2C(=O)c2c(C(F)F)nn(C)c2F)c1 (centres unmarked) | Criterion not met
* CCc1noc(C)c1C(=O)N1CCCCC1c1ccccc1Br (centres unmarked) | Criterion not met
* CCC(c1ccccc1)C1CCCCN1C(=S)c1c(C(F)F)nn(C)c1F (centres unmarked) | Criterion met
* CCC(c1ccccc1Cl)C1CCCCN1C(=O)c1c(C(F)F)nn(C)c1F (centres unmarked) | Criterion met
* Cc1nc(C(F)F)c(C(=O)N2CCCCC2Cc2ccc(F)cc2)s1 (centres unmarked) | Criterion not met
